The measurements presented in this section are drawn from patent US4343812A.

Tested on: tetrabenazine-induced sedation and depression in mice
Experiment: Antagonism of tetrabenazine-induced depression in mice (prevention of ptosis and exploratory loss), orally at 1 hour post-drug
Format: in vivo, mice (Carworth CF1 S female)
Conditions: Mus musculus, oral, tetrabenazine 32 mg/kg intraperitoneally 30 minutes after drug, read-out: ED50 For Prevention of Ptosis
Friendly reminder: ED50 below 8 mg/kg is true (1), at or above is false (0).

Sample answers from the record:
CCOC(=O)NC1CCC2c3ccccc3NC2C1 (stereo not drawn) | true (1)
CCNC1CCC2c3ccccc3NC2C1 (stereo not drawn) | false (0)
CCCCCCOc1ccc2c(c1)N[C@@H]1CC(NC(C)=O)CC[C@H]21 (stereo partly drawn) | false (0)
COc1ccc2c(c1)[C@H]1CCC(NC(C)=O)C[C@H]1N2 (stereo partly drawn) | false (0)
CCOC(=O)NC1CCc2c([nH]c3ccccc23)C1 (stereo not drawn) | false (0)
CN(C)C1CCC2c3ccccc3NC2C1 (stereo not drawn) | false (0)

Exercise: Please check: ED50 for CC(=O)NC1CCc2c([nH]c3ccccc23)C1 (stereo not drawn) , strictly under 8 mg/kg or not?
Solution: true (1)

Exercise: Lab note: ED50 threshold 8 mg/kg. Does this molecule come in strictly under it? CCCCCCOc1ccc2c3c([nH]c2c1)CC(NC(C)=O)CC3 (stereo not drawn)
Solution: false (0)

Exercise: I'd appreciate it if you could check whether CCC(=O)NC1CCc2c([nH]c3ccccc23)C1 (stereo not drawn) has ED50 smaller than 8 mg/kg.
Solution: false (0)

Exercise: Lab log: compare recorded ED50 with 8 mg/kg; is it strictly lower for CCCOc1ccc2c3c([nH]c2c1)CC(NC(C)=O)CC3 (stereo not drawn) ?
Solution: true (1)

Exercise: Is ED50 of CC(=O)NC1CCc2c([nH]c3cc(O)ccc23)C1 (stereo not drawn) strictly below 8 mg/kg?
Solution: false (0)

Exercise: Is it true that ED50 reported for CC(=O)NC1CC[C@@H]2c3ccccc3N(C)[C@@H]2C1 (stereo partly drawn) is less than 8 mg/kg?
Solution: true (1)
